Source of measurements: paper PMC9891171

# experimental-system: MscCAγ (Mammaliicoccus sciuri)
# Construct: gene OWO77_11715
# Sequence (A0AB37HNM1 1-169): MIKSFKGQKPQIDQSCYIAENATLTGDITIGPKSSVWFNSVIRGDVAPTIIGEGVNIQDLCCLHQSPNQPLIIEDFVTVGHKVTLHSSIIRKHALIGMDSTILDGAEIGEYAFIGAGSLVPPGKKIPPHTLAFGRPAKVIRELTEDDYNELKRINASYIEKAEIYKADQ
# test: stopped-flow CO2 hydration assay
# Assay type: biochemical
# settings: read-out: KI (mM)^a / McsCAγ
measured-attribute: log10 of Ki (log10 of the value in mM)
Short version: log10 scale, Ki, mM.

Ask: # return recorded log10 of Ki for input [O]=[Re](=[O])(=[O])[OH] [perrhenate]
Reply: 0.64

Ask: Item `OB(O)c1ccccc1` : provide log10 of Ki
Reply: -0.05

Ask: # return recorded log10 of Ki for input CCN(CC)C(=S)S [N,N-diethyldithiocarbamate]
Reply: -0.30

Ask: Given S=C(S)S [trithiocarbonate] , respond with its log10 of Ki.
Reply: -1.15

Ask: Output log10 of Ki of NS(N)(=O)=O [sulfamide]
Reply: 1.69

Ask: Indicate its recorded log10 of Ki; the molecule in question is N#C[SeH] [selenocyanide]
Reply: 1.51

Ask: # return recorded log10 of Ki for input O=P(O)(O)OP(=O)(O)O [pyrophosphate]
Reply: -0.10

Ask: // fetch log10 of Ki given entry O=S(=O)(O)NS(=O)(=O)O [iminodisulfonate]
Reply: 1.14

Ask: Please report the measured log10 of Ki for `NS(=O)(=O)O`
Reply: 1.40
